Target: Androgen receptor (Homo sapiens)
Sequence (P10275 whole entry): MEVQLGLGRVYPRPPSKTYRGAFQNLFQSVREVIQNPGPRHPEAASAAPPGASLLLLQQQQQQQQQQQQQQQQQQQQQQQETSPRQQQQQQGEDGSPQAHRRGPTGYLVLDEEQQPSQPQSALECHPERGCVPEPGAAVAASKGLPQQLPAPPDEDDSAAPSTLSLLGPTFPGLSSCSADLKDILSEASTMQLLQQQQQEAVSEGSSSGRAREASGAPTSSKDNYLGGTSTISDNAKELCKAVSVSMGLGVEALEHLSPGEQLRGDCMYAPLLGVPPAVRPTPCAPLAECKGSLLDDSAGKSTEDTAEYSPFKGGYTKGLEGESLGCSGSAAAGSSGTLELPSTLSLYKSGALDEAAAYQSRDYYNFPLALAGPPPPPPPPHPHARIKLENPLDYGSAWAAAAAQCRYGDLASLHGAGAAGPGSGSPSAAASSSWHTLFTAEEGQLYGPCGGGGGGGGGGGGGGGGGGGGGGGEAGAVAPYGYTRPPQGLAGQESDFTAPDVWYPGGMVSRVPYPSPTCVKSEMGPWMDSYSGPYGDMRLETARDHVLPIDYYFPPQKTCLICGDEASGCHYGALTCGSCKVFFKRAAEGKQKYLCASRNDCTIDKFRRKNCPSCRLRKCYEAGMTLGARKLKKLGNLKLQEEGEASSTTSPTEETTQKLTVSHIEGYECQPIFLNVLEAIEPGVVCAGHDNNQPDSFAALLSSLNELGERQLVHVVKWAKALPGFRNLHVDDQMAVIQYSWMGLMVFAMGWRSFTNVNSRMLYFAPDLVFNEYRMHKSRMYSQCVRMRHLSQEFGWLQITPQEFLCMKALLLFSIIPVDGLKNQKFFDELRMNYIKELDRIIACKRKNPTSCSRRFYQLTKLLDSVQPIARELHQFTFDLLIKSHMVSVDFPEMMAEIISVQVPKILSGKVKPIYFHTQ
MEASURED PROPERTY: pIC50
Answers are plain numbers, as −log10 of the molar value.

Observe how each entry below is paired with its result.
>  <SMI>
C[C@]12CC[C@H]3[C@@H](CC=C4[C@H]5CC[C@]43CC[C@H]5O)[C@@H]1CC[C@@H]2O

>  <pIC50>
5.95

$$$$
>  <SMI>
C=CC[C@@H]1C2=CC[C@H]3[C@@H]4CC[C@H](O)[C@@]4(C)CC[C@@H]3[C@@]2(C=C)CC[C@@H]1O

>  <pIC50>
7.82

$$$$

Note: attention shifts to another entry.
Would you mind telling me what pIC50 value was observed for `C/C=C\[C@]12CC[C@H](O)CC1=CC[C@H]1[C@@H]3CC[C@H](O)[C@@]3(C)CC[C@@H]12` ?
6.14
